ASSAY_PROTOCOL: Cell viability assay (CellTiter-Glo), HEK293
Type: cell-based
SETTINGS: human, HEK293 cells, 3 days of incubation
Reported CC50 at 3 days is given for each of the following compounds.

Here are 2 compounds together with their reported answers.
Given the compound COc1cccc(CN(C(=O)c2cc(-c3ccc(OC(F)F)cc3C(=O)N3Cc4ccccc4C[C@H]3CN3CCOCC3)n(C)c2C)c2ccc(O)cc2)c1C , what is its reported CC50 at 3 days?
> 25 µM

# query: CC50 at 3 days of entry COc1ccccc1CN(C(=O)c1cc(-c2cc(C#N)ccc2C(=O)N2Cc3ccccc3C[C@H]2CN2CCOCC2)n(C)c1C)c1ccc(O)cc1
> 25 µM

***
Which CC50 at 3 days value is on record for COc1cccc(CN(C(=O)c2cc(-c3cc(F)c(OC(F)F)cc3C(=O)N3Cc4ccccc4C[C@H]3CN3CCOCC3)n(C)c2C)c2ccc(Cl)cc2)c1C ?
> 25 µM
